Measurement Notes: in vivo rat PK study, aqueous liquid suspension with 0.5% w/v Hydroxypropyl Cellulose and 0.5% w/v Poloxamer F-68 (Example 8)
Experimental Conditions: oral 10 mg/kg of Compound 1, 5 mL/kg, suspension in 0.5% HPC / 0.5% Poloxamer F-68
Structures can show the parent of a compound that is named as a salt.
Quantity Measured: AUC0-t

For reference, reported AUC0-t for Cc1ccc(NC(=O)[C@H]2CCCN(C(=O)c3c(C)cccc3F)[C@H]2c2ccc(NC3CCCC3)cc2)cc1C(F)(F)F [Edisylate Salt (Form I)] stands at 2839 ng·h/mL

Per the record, Cc1ccc(NC(=O)[C@H]2CCCN(C(=O)c3c(C)cccc3F)[C@H]2c2ccc(NC3CCCC3)cc2)cc1C(F)(F)F [Napadisylate Salt (Form I)] has AUC0-t of 3417 ng·h/mL

So for Cc1ccc(NC(=O)[C@H]2CCCN(C(=O)c3c(C)cccc3F)[C@H]2c2ccc(NC3CCCC3)cc2)cc1C(F)(F)F [Camsylate Salt (Form I)] , the logged AUC0-t turned out to be 3870 ng·h/mL

In plain terms, Cc1ccc(NC(=O)[C@H]2CCCN(C(=O)c3c(C)cccc3F)[C@H]2c2ccc(NC3CCCC3)cc2)cc1C(F)(F)F [Napsylate Salt (Form I)] has a documented AUC0-t of 4876 ng·h/mL
